Source of measurements: the supplement of paper PMC10567573

B1: DVL3 (parent)
chain: HPDPAPFCADNPSELPPPMERTGG

- Variants of: B1
- Test summary: protein stability index of a GFP-peptide fusion (GPS, HEK-293T) (PSI 1-6); higher = more stable;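 further: lentivirally expressed fusions sorted by FACS into six bins by GFP to DsRed ratio, PSI derived from sequencing read proportions per bin multiplied by bin number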
- Experimental context: c terminus: a fixed tail appended
Reported property: protein stability index
Please state the value as a number alone, without comment.

// solved cases for protein stability index follow
{"columns": ["Variant", "protein stability index"],
 "data": [
  ["G23R", 2.89],
  ["A5V", 3.62],
  ["P12L", 3.24],
  ["T22R", 2.58],
  ["T22L", 2.94],
  ["H1R", 4.98],
  ["P16R", 2.28],
  ["T22D", 3.31],
  ["P6M", 2.83],
  ["P18E", 3.32]
]}

Read the entry "P17D" and write its reported protein stability index. 2.93

Read off the recorded protein stability index for "P17Q" 3.02
